Target: T1, ALK 001P
T1 construct: ALK (1-19) is described only as a region comprising a secretory signal, and no cleavage site is stated; Expressed in Expi293 cells and captured on a Protein A chip through its Fc
Experiment: SPR, Biacore 8K; ALK 001P captured on Protein A chip, ligand as analyte, 6 concentrations from 20 nM
Readout kind: binding result

- Binder: "Ligand 015P (ligand) DGHHHHHHGSLQDSEVNQEAKPEVKPEVKPETHINLKVSDGSSEIFFKIKKTTPLRRLMEAFAKRQGKEMDSLTFLYDGIEIQADQTPEDLDMEDNDIIEAHREQIGGLEVLFQGPRDLRMKDKFLKHLTGPLYFSPKCSKHFHRLYHNTRDCTIPAYYKRCARLLTRLAVSPVCMEDKQ"
  Data value: "binds"
- Binder: "Ligand 024P (ligand) DGHHHHHHGSLQDSEVNQEAKPEVKPEVKPETHINLKVSDGSSEIFFKIKKTTPLRRLMEAFAKRQGKEMDSLTFLYDGIEIQADQTPEDLDMEDNDIIEAHREQIGGLEVLFQGPAEAAGLGPSPEQRVEIVPRDLRMKDKFLKHLTGPLYFSPKCSKHFHRLYHNTRDCTIPAYYKRCARLLTRLAVSPVCM"
  Data value: "binds"
- Binder: "Ligand 007P (ligand) DGHHHHHHGSLQDSEVNQEAKPEVKPEVKPETHINLKVSDGSSEIFFKIKKTTPLRRLMEAFAKRQGKEMDSLTFLYDGIEIQADQTPEDLDMEDNDIIEAHREQIGGLEVLFQGPAAGLGPSPEQRVEIVPRDLRMKDKFLKHLTGPLYFSPKCSKHFHRLYHNTRDCTIPAYYKRCARLLTRLAVSPVCMEDKQ"
  Data value: "binds"
